# Target Of Assay: T1, RAGE-Fc chimera protein (BioTechne, 1145-RG) (UniProt Q15109 24-344)
# T1 construct: Bought reagent; also called Fc-RAGE; not shown: CH domain of IgG (Fc)
# T1 sequence (Q15109 24-344, change not shown): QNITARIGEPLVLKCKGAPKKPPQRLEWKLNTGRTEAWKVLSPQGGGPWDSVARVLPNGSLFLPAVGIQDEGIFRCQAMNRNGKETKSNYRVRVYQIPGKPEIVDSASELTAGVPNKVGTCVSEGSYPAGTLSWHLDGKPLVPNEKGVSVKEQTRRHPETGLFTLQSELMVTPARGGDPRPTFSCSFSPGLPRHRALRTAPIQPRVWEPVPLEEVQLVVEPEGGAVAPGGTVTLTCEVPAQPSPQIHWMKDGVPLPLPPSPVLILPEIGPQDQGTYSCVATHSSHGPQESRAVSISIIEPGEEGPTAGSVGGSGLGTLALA
# Test: hybrid ELISA: HMGB1 construct coated, RAGE-Fc titrated, anti-human IgG-HRP, OD450 normalized to DS-HMGB1; saturation fit
Reported Property: Kd (nM)
Use nM as the unit, but write only the number.

Kd measured on fully-reduced HMGB1, full-length (1-214) (ligand, cysteines reduced (Cys 22, Cys 44, Cys 105), Tags differ by assay: biotinylated (c011) in BLI with CXCL12, His6-tagged in the reverse peptide array, TEV-cleaved in the RAGE ELISA and BLI; also called FR-HMGB1; FR FL-HMGB1 (c011)) GKGDPKKPRGKMSSYAFFVQTCREEHKKKHPDASVNFSEFSKKCSERWKTMSAKEKGKFEDMAKADKARYEREMKTYIPPKGETKKKFKDPNAPKRPPSAFFLFCSEYRPKIKGEHPGLSIGDVAKKLGEMWNNTAADDKQPYEKKAAKLKEKYEKDIAAYRAKGKPDAAKKGVVKAEKSKKKKEEEEDEEDEEDEEEEEDEEDEDEEEDDDDE = 86.1
